Each recorded value in this set is attributed to PubChem BioAssay (EPA / NIEHS).

Assay: ATG_TCF_b_cat_CIS: Attagene CIS-FACTORIAL HepG2 Assay for human T-Cell-Factor with beta-catenin (TCF/b-cat) (AID 2282965)
Conditions: HepG2 TCF/beta-catenin cis-reporter transcription, actives raise or lower the signal
Active and inactive are the calls of the source. How the source made its calls: active means hit-call score of the fitted dose curve at least 0.9, where 1 is the maximum; inactive means score below 0.9.
The reply should be one of these categories: 1.0 (active), 0.0 (inactive)

Please state the recorded outcome for this compound: COc1cc(NC(=O)CC(C)=O)c(OC)cc1Cl 0.0

Field entry: C[Si](C)O[Si](C)(C)O[Si](C)(C)O[Si](C)C 0.0

Next compound: O=C1CC2CC1C1CCCC21 (stereo not drawn) 0.0

One more compound: CCCCCc1ccc(Cl)cc1 0.0

Now the same for CCCCCCCCCCCCCCCC[N+](C)(C)CC 1.0

Now the compound O=Cc1ccc(CO)o1 0.0

NCCCN1CCN(CCCN)CC1 ? 0.0

# repeat for O=C1CCCC(=O)O1 0.0

Repeat with CC1=CC[C@H](C(C)C)C=C1 0.0

Continue with CC(C)COC(=O)C=Cc1ccccc1 0.0

Continue with O=c1cc(-c2ccccc2)oc2ccccc12 1.0

Same again, this time with CCOCC(=O)O 0.0

Same thing, different compound: COC(=O)C1=C(C)NC(C)=C(C(=O)OCC(C)C)C1c1ccccc1[N+](=O)[O-] (stereo not drawn) 0.0

Quick one: CN(C)c1ccc(C(=N)c2ccc(N(C)C)cc2)cc1 1.0

# repeat for O=C(O)c1cc2ccccc2nc1C(=O)O 0.0

Param item: CC(C)(C)C(=O)C=Cc1ccc(Cl)cc1 1.0

Thanks! And O=CC1CC1 ? 0.0

Moving on to O=C(c1ccc(O)cc1)c1ccc(O)cc1O 0.0

Let us now turn to CC(C)=CC1CC(C)CCO1 (stereo not drawn) 0.0

Same question for CCOC(=O)[C@H](C)O please. 0.0

Next: CC/C=C\C/C=C\C/C=C\CCCCCCCC(=O)O 1.0

Could you do the same for Cc1cnc(NC(=O)C2=C(O)c3ccccc3S(=O)(=O)N2C)s1 , please? 0.0

Next compound up: CC(C)=CCCC(C)C=O (stereo not drawn) 0.0

Item: CCCCCCOC(=O)C(C)CC (stereo not drawn) 0.0

Another compound to look at: CC(=O)OCc1ccco1 0.0

And for CC(C)c1ccc2cc(C(C)C)ccc2c1 ? 0.0

Same again, this time with CC(C)c1ccc2c(C(C)C)cc(C(C)C)c(S(=O)(=O)O)c2c1 0.0

Note, next up: c1cc(C(c2ccc(OCC3CO3)cc2)C(c2ccc(OCC3CO3)cc2)c2ccc(OCC3CO3)cc2)ccc1OCC1CO1 (stereo not drawn) 1.0

Next compound up: C[Si](C)(C)O[Si](O)(O)O 0.0

Then COc1ccc(C(Cl)=C(c2ccc(OC)cc2)c2ccc(OC)cc2)cc1 ? 0.0

Next entry: FC(F)(F)C(=NOCC1OCCO1)c1ccc(Cl)cc1 0.0

Another compound: CC1=Nc2ccc3ccccc3c2C1(C)C 0.0

Lookup Cc1cc(C)c(C)c(O)c1 0.0

Same question for SCCc1cnccn1 please. 0.0

Same question for Cc1ccc2c(c1)C(=O)c1ccccc1C2=O please. 0.0

Same lookup for CCCC(=O)OCc1ccccc1 , please. 0.0

Another: CCCCCC/C=C\CCCCCCCC(=O)O 0.0

Consider next the compound CC(=O)Nc1ccc2c(c1)Cc1cc(NC(C)=O)ccc1-2 in the same way. 0.0

Would you mind doing C=C1[C@H]2CC[C@@H]3[C@H]2C(C)(C)CCC[C@]13C as well? 0.0

Then this compound: CO[Si](OC)(OC)c1ccccc1 0.0

Also need COC(=O)/C=C/C(C)=C\C=C\C(C)=C\C=C\C=C(C)\C=C\C=C(C)\C=C\C(=O)O , thanks. 0.0

What about CC1=NN(c2cc(S(=O)(=O)O)ccc2Cl)C(=O)C1N=Nc1ccccc1 (stereo not drawn) ? 0.0

Query O=C(Nc1ccccc1)c1ccccc1O next 0.0

Try CCCCCCC1(C)CCC(=O)O1 (stereo not drawn) next. 0.0

And for COCC(C)N (stereo not drawn) ? 0.0

And Nc1ccc2cc3ccccc3cc2c1 ? 0.0

Also need ON(Cc1ccccc1)Cc1ccccc1 , thanks. 0.0

Same question, COC(=O)c1sccc1S(N)(=O)=O this time 0.0

Also need C=C(C)C(=O)OCCOc1ccccc1 , thanks. 0.0

Also check CCOc1ccc(N)c([N+](=O)[O-])c1 0.0

Request: CC1(C)O[C@@H]2C[C@H]3[C@@H]4C[C@H](F)C5=CC(=O)C=C[C@]5(C)[C@@]4(F)[C@@H](O)C[C@]3(C)[C@]2(C(=O)CO)O1 0.0

Same read-out for CCCCCCCCCCOC(C)=O ? 0.0

Now try COCCOCCOCCOCCOC . 0.0

Quick one: CC(=O)OCC(C)OC(C)=O (stereo not drawn) 0.0

Then CO[Si](CCC1CCC2OC2C1)(OC)OC (stereo not drawn) ? 0.0

Another compound: O=C1c2ccccc2C(=O)C1c1nc2ccccc2c(Br)c1O 0.0

Then COCCCOCCCOC ? 0.0

Try CCCCCCC(O)CO (stereo not drawn) next. 0.0
